The values you see were collected from patent US20240352133A1.

- testedSystem: Recombinant human his-tagged IGF 1R extracellular domain protein (human) (UniProt P08069)
- measurementDescription: SPR, captured antibody, pH 7.4
reportedEndpoint: kon (M⁻¹ s⁻¹)
Numeric answer only, unit M⁻¹ s⁻¹ assumed.

Exercise: For the binder VRDN-03117 (antibody, V domains shown) VH: EVQLVESGGGVVQPGRSLRLSCAASGFTFSSYSMHWVRQAPGKGLEWVAIIWFDGSNKYYADSVKSRFTISRDNSKNTLYLQMNSLRAEDTAVYYCARELGRRYFDIWGQGTLVTVSS VL: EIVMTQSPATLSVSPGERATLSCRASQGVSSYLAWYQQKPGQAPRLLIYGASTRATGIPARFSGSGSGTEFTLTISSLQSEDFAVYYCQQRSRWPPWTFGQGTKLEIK , what kon is on record?
Key: 483000

Exercise: For the binder VRDN-03131 (antibody, V domains shown) VH: EVQLVESGGGVVQPGRSLRLSCAASGFTFSSYSMHWVRQAPGKGLEWVAIIWFDGSEKYYVDSVKSRFTISRDNSKNTLYLQMNSLRAEDTAVYYCARELGRRYFDIWGQGTLVTVSS VL: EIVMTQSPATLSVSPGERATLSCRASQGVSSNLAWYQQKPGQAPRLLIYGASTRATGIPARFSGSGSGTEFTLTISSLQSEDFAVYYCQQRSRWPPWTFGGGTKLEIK , what kon is on record?
Key: 86900

Exercise: For the binder VRDN-03118 (antibody, V domains shown) VH: EVQLVESGGGVVQPGRSLRLSCAASGFTFSSYSMHWVRQAPGKGLEWVAIIWFDGSSKYYVDSVKSRFTISRDNSKNTLYLQMNSLRAEDTAVYYCARELGRRYFDIWGQGTLVTVSS VL: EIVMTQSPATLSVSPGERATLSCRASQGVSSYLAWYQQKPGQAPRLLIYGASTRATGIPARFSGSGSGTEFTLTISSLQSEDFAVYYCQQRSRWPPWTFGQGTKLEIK , what kon is on record?
Key: 98600

Exercise: For the binder VRDN-03136 (antibody, V domains shown) VH: EVQLVESGGGVVQPGRSLRLSCAASGFTFDDYTMHWVRQAPGKGLEWVAIIWFDGSSKYYADSVKGRFTISRDNSKNTLYLQMNSLRAEDTAVYYCARELGRRYFDIWGQGTLVTVSS VL: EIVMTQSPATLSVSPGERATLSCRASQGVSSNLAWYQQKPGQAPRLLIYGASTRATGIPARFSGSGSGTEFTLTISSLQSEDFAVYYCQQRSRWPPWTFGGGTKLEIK , what kon is on record?
Key: 89100

Exercise: For the binder VRDN-03099 (antibody, V domains shown) VH: QVQLVESGGGVVQPGRSLRLSCAASGFTFSSYSMHWVRQAPGKGLEWVAIIWFDGSSKYYVDSVKGRFTISRDNSKNTLYLQMNSLRAEDTAVYYCARELGRRYFDIWGRGTLVTVSS VL: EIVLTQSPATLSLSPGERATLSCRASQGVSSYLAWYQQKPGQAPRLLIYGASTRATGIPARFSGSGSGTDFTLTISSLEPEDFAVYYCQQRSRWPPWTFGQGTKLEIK , what kon is on record?
Key: 63700

Exercise: For the binder VRDN-03044 (antibody, V domains shown) VH: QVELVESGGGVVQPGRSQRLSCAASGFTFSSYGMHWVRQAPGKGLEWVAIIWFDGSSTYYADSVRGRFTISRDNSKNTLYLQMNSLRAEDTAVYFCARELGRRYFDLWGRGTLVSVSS VL: EIVLTQSPATLSLSPGERATLSCRASQSVHSYLAWYQQKPGQAPRLLIYDASKRATGIPARFSGSGSGTDFTLTISSLEPEDFAVYYCQQRSKWPPWTFGQGTKVESK , what kon is on record?
Key: 98400

Exercise: For the binder VRDN-03119 (antibody, V domains shown) VH: EVQLVESGGGVVQPGRSLRLSCAASGFTFSSYSMHWVRQAPGKGLEWVAIIWFDGSEKYYVDSVKSRFTISRDNSKNTLYLQMNSLRAEDTAVYYCARELGRRYFDIWGQGTLVTVSS VL: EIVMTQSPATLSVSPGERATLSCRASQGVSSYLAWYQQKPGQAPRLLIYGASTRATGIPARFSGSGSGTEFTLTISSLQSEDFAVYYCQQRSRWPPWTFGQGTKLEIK , what kon is on record?
Key: 157000

Exercise: For the binder VRDN-03053 (antibody, V domains shown) VH: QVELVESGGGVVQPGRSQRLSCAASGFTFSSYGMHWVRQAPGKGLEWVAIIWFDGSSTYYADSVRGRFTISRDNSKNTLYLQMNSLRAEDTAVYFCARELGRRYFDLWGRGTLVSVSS VL: EIVLTQSPATLSLSPGERATLSCRASQSVSSYLAWYQQKPGQAPRLLIYDASKHATGIPARFSGSGSGTDFTLTISSLEPEDFAVYYCQQRSKWPPWTFGQGTKVESK , what kon is on record?
Key: 105000

Exercise: For the binder VRDN-03137 (antibody, V domains shown) VH: EVQLVESGGGVVQPGRSLRLSCAASGFTFDDYAMHWVRQAPGKGLEWVAVIWYDGSSKYYADSVKGRFTISRDNSKNTLYLQMNSLRAEDTAVYYCARELGRRYFDIWGQGTLVTVSS VL: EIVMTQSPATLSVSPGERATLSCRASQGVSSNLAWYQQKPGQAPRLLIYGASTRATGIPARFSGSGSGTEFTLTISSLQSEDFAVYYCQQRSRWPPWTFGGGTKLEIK , what kon is on record?
Key: 940000

Exercise: For the binder VRDN-03042 (antibody, V domains shown) VH: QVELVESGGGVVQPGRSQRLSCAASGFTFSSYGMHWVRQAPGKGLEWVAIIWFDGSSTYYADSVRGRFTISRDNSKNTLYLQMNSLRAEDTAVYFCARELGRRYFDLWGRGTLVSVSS VL: EIVLTQSPATLSLSPGERATLSCRASQHVSSYLAWYQQKPGQAPRLLIYDASKRATGIPARFSGSGSGTDFTLTISSLEPEDFAVYYCQQRSKWPPWTFGQGTKVESK , what kon is on record?
Key: 112000
